The reported numbers originate from ChEMBL document CHEMBL1201862.

# Target entity: Ataxin-2 (Homo sapiens) (UniProt Q99700)
# Sequence (Q99700 whole entry): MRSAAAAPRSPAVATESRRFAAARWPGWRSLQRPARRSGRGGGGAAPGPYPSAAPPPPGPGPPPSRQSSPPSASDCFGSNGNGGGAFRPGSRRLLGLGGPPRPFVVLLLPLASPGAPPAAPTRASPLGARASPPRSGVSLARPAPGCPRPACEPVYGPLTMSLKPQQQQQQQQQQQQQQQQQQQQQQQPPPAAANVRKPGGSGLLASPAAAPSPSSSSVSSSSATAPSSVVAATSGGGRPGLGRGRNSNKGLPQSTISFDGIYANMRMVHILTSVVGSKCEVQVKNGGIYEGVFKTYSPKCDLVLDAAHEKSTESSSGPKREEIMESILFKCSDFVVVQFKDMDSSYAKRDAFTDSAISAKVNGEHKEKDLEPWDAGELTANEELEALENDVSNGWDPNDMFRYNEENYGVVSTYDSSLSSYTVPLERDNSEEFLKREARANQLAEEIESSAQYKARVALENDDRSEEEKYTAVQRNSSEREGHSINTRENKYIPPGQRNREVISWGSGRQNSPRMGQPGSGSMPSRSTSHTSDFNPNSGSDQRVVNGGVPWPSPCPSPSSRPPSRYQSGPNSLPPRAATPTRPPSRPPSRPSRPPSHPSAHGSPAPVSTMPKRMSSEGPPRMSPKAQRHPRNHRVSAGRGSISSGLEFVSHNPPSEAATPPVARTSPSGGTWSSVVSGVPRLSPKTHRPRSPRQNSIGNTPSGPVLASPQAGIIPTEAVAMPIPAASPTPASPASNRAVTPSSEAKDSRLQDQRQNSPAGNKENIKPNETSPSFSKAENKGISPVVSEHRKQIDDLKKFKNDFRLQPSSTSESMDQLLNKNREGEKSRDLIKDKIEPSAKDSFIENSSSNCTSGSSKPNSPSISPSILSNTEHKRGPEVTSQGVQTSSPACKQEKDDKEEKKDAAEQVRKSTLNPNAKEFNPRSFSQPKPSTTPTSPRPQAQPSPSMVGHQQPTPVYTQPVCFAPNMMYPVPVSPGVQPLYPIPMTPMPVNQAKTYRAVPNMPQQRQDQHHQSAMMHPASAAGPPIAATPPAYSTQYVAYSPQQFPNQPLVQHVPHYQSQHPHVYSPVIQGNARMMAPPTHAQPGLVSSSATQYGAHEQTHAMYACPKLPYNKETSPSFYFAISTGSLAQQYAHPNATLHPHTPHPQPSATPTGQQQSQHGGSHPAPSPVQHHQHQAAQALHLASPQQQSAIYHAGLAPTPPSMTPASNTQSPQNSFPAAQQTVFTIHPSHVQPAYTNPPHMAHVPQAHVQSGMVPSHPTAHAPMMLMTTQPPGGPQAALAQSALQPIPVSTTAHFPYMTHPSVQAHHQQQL
# Experimental details: qHTS for Inhibitors of ATXN expression.
# Type: functional
About 2,100 (0.53%) of roughly 400,000 compounds were called active. Inconclusive results (about 14%) are left out. The sample holds actives, similar compounds and a random draw of the others, so the mix is not that of the screen.
Quantity name: Potency

Compound: COc1ccc(OCCC(=O)NCCN2CCOCC2)cc1
Target entity: Ataxin-2 (Homo sapiens) (UniProt Q99700)
Potency: inactive

Compound: O=C1Nc2ccccc2/C1=C/c1c[nH]c(-c2ccccc2)n1
Target entity: Ataxin-2 (Homo sapiens) (UniProt Q99700)
Potency: inactive

Compound: Cn1c2nc(=O)[nH]c(=O)c-2cc2ccccc21
Target entity: Ataxin-2 (Homo sapiens) (UniProt Q99700)
Potency: inactive

Compound: CCOC(CN=c1nc(N(C)C)ss1)OCC
Target entity: Ataxin-2 (Homo sapiens) (UniProt Q99700)
Potency: 29.9 µM (active)

Compound: Cc1ccc(/C=N/NC(=O)c2cc3c(s2)CCCC3)o1
Target entity: Ataxin-2 (Homo sapiens) (UniProt Q99700)
Potency: inactive

Entry under test: Nc1ccccc1SC(C[N+](=O)[O-])c1ccccc1 (centres undefined) . Its Potency was 39.8 µM (active)

Entry under test: COc1ccc(C(=O)N/N=C\c2coc3ccccc3c2=O)cc1 . Its Potency was inactive

Entry under test: C/C(=N\N1C(=O)c2ccccc2NC1c1ccco1)c1ccccc1O (centres undefined) . Its Potency was 2 µM (active)

Entry under test: COc1ccc(N/C=C2/C(=O)N(c3cccc(C)n3)C(=O)c3ccccc32)c(OC)c1 . Its Potency was inactive

Entry under test: COc1ccc2c(c1)/C(=C\c1cccc(/C=C3/C(=O)Nc4ccc(OC)cc43)n1)C(=O)N2 . Its Potency was 0.891 µM (active)

---

# Target entity: Ataxin-2 (Homo sapiens) (UniProt Q99700)
# Experimental details: qHTS for Inhibitors of ATXN expression.
# Format: functional
In all, about 400,000 compounds went through this assay and about 2,100 (0.53%) were called active. Not shown: some 14% with an inconclusive outcome. The sample as a whole holds a higher share of actives than the screen did.
Quantity name: Potency

Worked examples follow.
Compound: CC(=O)N1CCCc2cc(S(=O)(=O)N(C)CC(=O)Nc3ccccc3)ccc21
Potency: inactive
--
Compound: CC(C)NCC(O)Cn1c2c(c3ccccc31)CCc1c-2cnn1-c1ccccc1 (stereo not given)
Potency: 25.1 µM (active)
--
Compound: CCCn1nc(NC(=O)CC)c2cc3cccc(C)c3nc21
Potency: inactive
--
Compound: CC(C)(C=O)C1=CC(=O)c2ccccc2C1=O
Potency: 10 µM (active)

Entry under test: CCOc1ccc(NCc2cccn2-c2nnc(N3CCC(C(=O)NCCCN4CCCCC4CC)CC3)s2)cc1 (stereo not given) . Its Potency was 22.4 µM (active)

---

# Target entity: Ataxin-2 (Homo sapiens) (UniProt Q99700)
# Experimental details: qHTS for Inhibitors of ATXN expression.
# Format: functional
The campaign covered roughly 400,000 compounds. About 2,100 (0.53%) were called active. About 14% were inconclusive and are not listed. No rule for the calls is given here. Shown is part of a subset that was picked to be rich in actives.
Result category, one only: true (1) (active), false (0) (inactive)

Hi team, can someone confirm the assay call for Cc1cc2[nH]c3c(c[n+](C)c4ccccc34)c2cc1C ?
true (1)

Hi team, can someone confirm the assay call for COc1cccc(N/C=C/C(=O)c2ccc(Cl)cc2)c1 ?
false (0)

Hi team, can someone confirm the assay call for CN1Cc2c(N3CCOCC3)nc3sc(C(=O)c4ccc(Br)cc4)c(N)c3c2CC1(C)C ?
false (0)

Hi team, can someone confirm the assay call for CCCOC(=O)c1ccc(Oc2coc3c(CN(CC)CC)c(O)ccc3c2=O)cc1 ?
false (0)

Hi team, can someone confirm the assay call for O=C(Nc1nnc(-c2ccc3c(c2)CCCC3)o1)c1ccccc1 ?
true (1)

Hi team, can someone confirm the assay call for O=C(NC(=O)c1ccccc1Cl)C(=O)Nc1ccc(Cl)cc1 ?
false (0)

Hi team, can someone confirm the assay call for Cc1cccc2nc(-c3ccccn3)c(Nc3ccc(F)cc3)n12 ?
true (1)

Hi team, can someone confirm the assay call for Cc1cc(C)cc(NC(=O)COC(=O)[C@@H](NC(=O)c2ccco2)C(C)C)c1 ?
false (0)

Hi team, can someone confirm the assay call for CC(C)(C)OC(=O)NCC(=O)Oc1cc2oc(=O)cc(-c3ccccc3)c2cc1Cl ?
false (0)

Hi team, can someone confirm the assay call for Cc1nccc2cc3[nH]c4ccccc4c3cc12 ?
false (0)

Hi team, can someone confirm the assay call for Cc1ccc(NC(=O)c2cccc(Oc3ccc([N+](=O)[O-])cc3)c2)c(C(=O)O)c1 ?
false (0)

Hi team, can someone confirm the assay call for N=c1c(C(=O)NCC2CCCO2)cc2c(=O)n3ccccc3nc2n1C1CCCC1 (configuration not stated) ?
false (0)

Hi team, can someone confirm the assay call for COc1ccc(OC)c2sc(NC(=O)c3ccc(Cl)s3)nc12 ?
false (0)

Hi team, can someone confirm the assay call for O=S(=O)(c1cc(Cl)ccc1Cl)N1CCN(c2ccccn2)CC1 ?
false (0)

Hi team, can someone confirm the assay call for CCOc1ccc(C(=O)COC(=O)Cn2[nH]c(=O)c3ccccc3c2=O)cc1 ?
false (0)

Hi team, can someone confirm the assay call for O=C(NCC1Cc2cccc(-c3cccnc3)c2O1)c1ccc2cc[nH]c2c1 (configuration not stated) ?
false (0)

Hi team, can someone confirm the assay call for COc1cccc(-c2nnc(NC(=O)c3ccc(Cl)s3)o2)c1 ?
true (1)

Hi team, can someone confirm the assay call for COCCCn1c(=N)c(C(=O)NCC2CCCO2)cc2c(=O)n3cc(C)ccc3nc21 (configuration not stated) ?
false (0)

Hi team, can someone confirm the assay call for O=C(Nc1nnc(-c2cccs2)o1)c1cccc(Oc2ccccc2)c1 ?
true (1)

Hi team, can someone confirm the assay call for CC(C)CNC(=O)COC(=O)c1c2c(nc3ccccc13)/C(=C\c1cccs1)CC2 ?
false (0)

Hi team, can someone confirm the assay call for C=C1C(=O)OC2C1CCC(C)=CCCC1(C)OC21 (configuration not stated) ?
true (1)

Hi team, can someone confirm the assay call for Cc1ccc(Nc2nc(-c3ccccc3)c(CC(=O)O)s2)cc1 ?
false (0)
